FYI, the data here is from patent US11844801B2.

assay: Phase 1 SAD/MAD pharmacokinetics of oral ATI-450 in healthy subjects (incl. 80/120 mg BID extension); format: in vivo, human; conditions: both sexes, human, plasma, oral, 50 mg, 50 mg BID, day 7; read-out: AUC0-12
property: AUC(0-t) (ng·h/mL)
Answer in ng·h/mL, number only, no unit symbol.

Prompt: Quick check: AUC(0-t) of Cc1cnc(-c2ccnc(C(C)(C)O)n2)cc1-n1c(C)cc(OCc2ncc(F)cc2F)c(Cl)c1=O (single isomer, unassigned) ?
Completion: 1510

====

assay: Phase 1 SAD/MAD pharmacokinetics of oral ATI-450 in healthy subjects (incl. 80/120 mg BID extension); assay type: in vivo, human; conditions: both sexes, human, plasma, oral, 120 mg, 120 mg BID, day 4; read-out: Ctrough
property: concentration at 4 day (ng/mL)
Answer in ng/mL, number only, no unit symbol.

Prompt: Quick check: concentration at 4 day of Cc1cnc(-c2ccnc(C(C)(C)O)n2)cc1-n1c(C)cc(OCc2ncc(F)cc2F)c(Cl)c1=O (single isomer, unassigned) [ATI-450] ?
Completion: 126

====

experiment: Phase 1 SAD/MAD pharmacokinetics of oral ATI-450 in healthy subjects (incl. 80/120 mg BID extension); assay type: in vivo, human; conditions: both sexes, human, plasma, po, 100 mg, single oral dose 100 mg, fed (high-fat, high-calorie breakfast); read-out: Tmax, median (min, max)
property: Tmax (h)
Answer in h, number only, no unit symbol.

Prompt: Quick check: Tmax of Cc1cnc(-c2ccnc(C(C)(C)O)n2)cc1-n1c(C)cc(OCc2ncc(F)cc2F)c(Cl)c1=O (single isomer, unassigned) [ATI-450] ?
Completion: 6

====

assay: Phase 1 SAD/MAD pharmacokinetics of oral ATI-450 in healthy subjects (incl. 80/120 mg BID extension); format: in vivo, human; settings: both sexes, human, plasma, po, 100 mg, single oral dose 100 mg, fed (high-fat, high-calorie breakfast); read-out: t1/2 (converted)
property: half-life (h)
Answer in h, number only, no unit symbol.

Prompt: Quick check: half-life of Cc1cnc(-c2ccnc(C(C)(C)O)n2)cc1-n1c(C)cc(OCc2ncc(F)cc2F)c(Cl)c1=O (single isomer, unassigned) [ATI-450] ?
Completion: 6.3

====

test: Phase 1 SAD/MAD pharmacokinetics of oral ATI-450 in healthy subjects (incl. 80/120 mg BID extension); assay type: in vivo, human; details: both sexes, human, plasma, oral, 50 mg, 50 mg BID, day 2; read-out: Ctrough
property: concentration at 2 day (ng/mL)
Answer in ng/mL, number only, no unit symbol.

Prompt: Quick check: concentration at 2 day of Cc1cnc(-c2ccnc(C(C)(C)O)n2)cc1-n1c(C)cc(OCc2ncc(F)cc2F)c(Cl)c1=O (single isomer, unassigned) ?
Completion: 84

====

test: Phase 1 SAD/MAD pharmacokinetics of oral ATI-450 in healthy subjects (incl. 80/120 mg BID extension); format: in vivo, human; settings: both sexes, human, plasma, oral, 120 mg, 120 mg BID, day 7; read-out: t1/2 (converted)
property: half-life (h)
Answer in h, number only, no unit symbol.

Prompt: Quick check: half-life of Cc1cnc(-c2ccnc(C(C)(C)O)n2)cc1-n1c(C)cc(OCc2ncc(F)cc2F)c(Cl)c1=O (single isomer, unassigned) ?
Completion: 8.7

====

assay: Phase 1 SAD/MAD pharmacokinetics of oral ATI-450 in healthy subjects (incl. 80/120 mg BID extension); type: in vivo, human; details: both sexes, human, plasma, oral, 80 mg, 80 mg BID, day 5; read-out: Ctrough
property: concentration at 5 day

Prompt: Quick check: concentration at 5 day of Cc1cnc(-c2ccnc(C(C)(C)O)n2)cc1-n1c(C)cc(OCc2ncc(F)cc2F)c(Cl)c1=O (single isomer, unassigned) ?
Completion: 145 ng/mL

====

Assay: Phase 1 SAD/MAD pharmacokinetics of oral ATI-450 in healthy subjects (incl. 80/120 mg BID extension)
Type: in vivo, human
Conditions: both sexes, human, plasma, oral, 80 mg, 80 mg BID, day 7; read-out: t1/2 (converted)
Description: Study Design. […] Single ascending dose (SAD) cohorts. […] Multiple ascending dose (MAD) cohorts. […] Blood Sampling and Bioanalysis. Two-milliliter blood samples were collected for PK analysis. […] The lower limit of quantification was 0.500 ng/mL. Pharmacokinetics. […] The method was minimally required to have intra- and inter-day precision (coefficients of variation) for pooled plasma quality control samples of ≤15% except at the lower limit of quantitation, where ≤20% was acceptable. […]
property: half-life (h)
Answer in h, number only, no unit symbol.

Prompt: Quick check: half-life of Cc1cnc(-c2ccnc(C(C)(C)O)n2)cc1-n1c(C)cc(OCc2ncc(F)cc2F)c(Cl)c1=O (single isomer, unassigned) [ATI-450] ?
Completion: 14.3

====

assay: Phase 1 SAD/MAD pharmacokinetics of oral ATI-450 in healthy subjects (incl. 80/120 mg BID extension); assay type: in vivo, human; conditions: both sexes, human, plasma, oral, 30 mg, 30 mg BID, day 5; read-out: Ctrough
property: concentration at 5 day (µg/mL)
Answer in µg/mL, number only, no unit symbol.

Prompt: Quick check: concentration at 5 day of Cc1cnc(-c2ccnc(C(C)(C)O)n2)cc1-n1c(C)cc(OCc2ncc(F)cc2F)c(Cl)c1=O (single isomer, unassigned) ?
Completion: 0.0349

====

experiment: Phase 1 SAD/MAD pharmacokinetics of oral ATI-450 in healthy subjects (incl. 80/120 mg BID extension); assay type: in vivo, human; details: both sexes, human, plasma, oral, 80 mg, 80 mg BID, day 3; read-out: Ctrough
property: concentration at 3 day (ng/mL)
Answer in ng/mL, number only, no unit symbol.

Prompt: Quick check: concentration at 3 day of Cc1cnc(-c2ccnc(C(C)(C)O)n2)cc1-n1c(C)cc(OCc2ncc(F)cc2F)c(Cl)c1=O (single isomer, unassigned) [ATI-450] ?
Completion: 149

====

test: Phase 1 SAD/MAD pharmacokinetics of oral ATI-450 in healthy subjects (incl. 80/120 mg BID extension); format: in vivo, human; settings: both sexes, human, plasma, oral, 10 mg, 10 mg BID, day 7; read-out: AUC0-12
property: AUC(0-t) (ng·h/mL)
Answer in ng·h/mL, number only, no unit symbol.

Prompt: Quick check: AUC(0-t) of Cc1cnc(-c2ccnc(C(C)(C)O)n2)cc1-n1c(C)cc(OCc2ncc(F)cc2F)c(Cl)c1=O (single isomer, unassigned) ?
Completion: 288

====

assay: Phase 1 SAD/MAD pharmacokinetics of oral ATI-450 in healthy subjects (incl. 80/120 mg BID extension); assay type: in vivo, human; conditions: both sexes, human, plasma, oral, 10 mg, 10 mg BID, day 3; read-out: Ctrough
property: concentration at 3 day (ng/mL)
Answer in ng/mL, number only, no unit symbol.

Prompt: Quick check: concentration at 3 day of Cc1cnc(-c2ccnc(C(C)(C)O)n2)cc1-n1c(C)cc(OCc2ncc(F)cc2F)c(Cl)c1=O (single isomer, unassigned) ?
Completion: 9.8

====

assay: Phase 1 SAD/MAD pharmacokinetics of oral ATI-450 in healthy subjects (incl. 80/120 mg BID extension); type: in vivo, human; conditions: both sexes, human, plasma, oral, 80 mg, 80 mg BID, day 2; read-out: Ctrough
property: concentration at 2 day (ng/mL)
Answer in ng/mL, number only, no unit symbol.

Prompt: Quick check: concentration at 2 day of Cc1cnc(-c2ccnc(C(C)(C)O)n2)cc1-n1c(C)cc(OCc2ncc(F)cc2F)c(Cl)c1=O (single isomer, unassigned) [ATI-450] ?
Completion: 176

====

assay: Phase 1 SAD/MAD pharmacokinetics of oral ATI-450 in healthy subjects (incl. 80/120 mg BID extension); type: in vivo, human; conditions: both sexes, human, plasma, po, 50 mg, single oral dose 50 mg, fasted; read-out: t1/2 (converted)
property: half-life (h)
Answer in h, number only, no unit symbol.

Prompt: Quick check: half-life of Cc1cnc(-c2ccnc(C(C)(C)O)n2)cc1-n1c(C)cc(OCc2ncc(F)cc2F)c(Cl)c1=O (single isomer, unassigned) ?
Completion: 9.1

====

assay: 13-week oral administration non-clinical safety study, mini-pig; type: in vivo; settings: female, minipig, in vivo; 60 mg/kg/day oral, study day 90, females; read-out: AUC0-24
property: AUC(0-t) (µg·h/mL)
Answer in µg·h/mL, number only, no unit symbol.

Prompt: Quick check: AUC(0-t) of Cc1cnc(-c2ccnc(C(C)(C)O)n2)cc1-n1c(C)cc(OCc2ncc(F)cc2F)c(Cl)c1=O (single isomer, unassigned) ?
Completion: 22.6

====

experiment: Phase 1 SAD/MAD pharmacokinetics of oral ATI-450 in healthy subjects (incl. 80/120 mg BID extension); format: in vivo, human; conditions: both sexes, human, plasma, oral, 30 mg, 30 mg BID, day 7; read-out: Tmax, median (min, max)
property: Tmax (h)
Answer in h, number only, no unit symbol.

Prompt: Quick check: Tmax of Cc1cnc(-c2ccnc(C(C)(C)O)n2)cc1-n1c(C)cc(OCc2ncc(F)cc2F)c(Cl)c1=O (single isomer, unassigned) ?
Completion: 2
